ASSAY_TARGET: NAD-dependent protein deacetylase sirtuin-1 (Homo sapiens)
ASSAY_OVERVIEW: Inhibition of full length human SIRT1 expressed in Escherichia coli BL21 (DE3) cells at 100 uM using fluorogenic 7-amino-4-methylcoumarin (AMC)-labeled peptide by fluorescence assay
This section presents compounds with their documented inhibition values.
EXPERIMENTAL_READOUT: inhibition (%)

{"columns": ["STRUCTURE", "BOUND_TYPE", "RESULT_NUMBER"],
 "data": [
  ["O=C(Nc1ccc(S(=O)(=O)O)c2ccccc12)c1cccc([N+](=O)[O-])c1", "<", 10],
  ["O=C(Nc1cccc2cc(S(=O)(=O)O)ccc12)c1ccccc1", "<", 10],
  ["Cc1ccc(C(=O)Nc2cccc3cccc(S(=O)(=O)O)c23)cc1N", "=", 12],
  ["Cc1ccc(C(=O)Nc2cccc3cc(S(=O)(=O)O)ccc23)cc1", "=", 19],
  ["Nc1cccc(C(=O)Nc2cccc3cc(S(=O)(=O)O)ccc23)c1", "<", 10],
  ["Cc1ccc(C(=O)Nc2ccc(S(=O)(=O)O)c3ccccc23)cc1[N+](=O)[O-]", "=", 23],
  ["Cc1ccc(C(=O)Nc2cccc3cc(S(=O)(=O)O)ccc23)cc1N", "=", 14]
]}

Source of measurements: ChEMBL document CHEMBL3351796
